Target: recombinant human cannabinoid receptor CB2 (Homo sapiens, UniProt P34972)
Construct: (cDNA clone) CNR0200000
Sequence (P34972 whole entry): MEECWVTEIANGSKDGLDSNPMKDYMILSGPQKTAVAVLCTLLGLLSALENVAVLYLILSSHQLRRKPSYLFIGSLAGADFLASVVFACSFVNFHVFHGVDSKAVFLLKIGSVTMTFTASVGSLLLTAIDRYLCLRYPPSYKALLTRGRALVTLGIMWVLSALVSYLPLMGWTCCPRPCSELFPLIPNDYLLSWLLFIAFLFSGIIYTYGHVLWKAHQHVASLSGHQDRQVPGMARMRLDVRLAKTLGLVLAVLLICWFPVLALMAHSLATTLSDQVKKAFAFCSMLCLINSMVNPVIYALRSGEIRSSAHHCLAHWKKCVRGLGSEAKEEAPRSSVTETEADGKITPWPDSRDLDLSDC
Assay: Cannabinoid receptor radioligand binding assay, [3H]-CP 55,940 displacement, hCB2
pIC50: −log10 of the molar value.

- smiles-repr: "Cc1cc2cc(C(=O)c3ccccc3Cl)sc2n1CCN1CCOCC1"
  pIC50: "> 7.00"
- smiles-repr: "Cc1cc2cc(C(=O)c3cccc(Cl)c3Cl)sc2n1CCN1CCN(C)CC1"
  pIC50: "5.00 to 6.00"
- smiles-repr: "COc1ccc(C(=O)c2cc3cc(C)n(CCN4CCCCC4)c3s2)c(Cl)c1"
  pIC50: "> 7.00"
- smiles-repr: "Cc1cc2cc(C(=O)c3cccc(Cl)n3)sc2n1CCN1CCOCC1"
  pIC50: "6.00 to 7.00"

====

The reader will find reported IC50 values listed item by item below.
Target: recombinant human cannabinoid receptor CB1 (Homo sapiens)
Construct: (cDNA clone) CNR01L000
Sequence (P21554 whole entry): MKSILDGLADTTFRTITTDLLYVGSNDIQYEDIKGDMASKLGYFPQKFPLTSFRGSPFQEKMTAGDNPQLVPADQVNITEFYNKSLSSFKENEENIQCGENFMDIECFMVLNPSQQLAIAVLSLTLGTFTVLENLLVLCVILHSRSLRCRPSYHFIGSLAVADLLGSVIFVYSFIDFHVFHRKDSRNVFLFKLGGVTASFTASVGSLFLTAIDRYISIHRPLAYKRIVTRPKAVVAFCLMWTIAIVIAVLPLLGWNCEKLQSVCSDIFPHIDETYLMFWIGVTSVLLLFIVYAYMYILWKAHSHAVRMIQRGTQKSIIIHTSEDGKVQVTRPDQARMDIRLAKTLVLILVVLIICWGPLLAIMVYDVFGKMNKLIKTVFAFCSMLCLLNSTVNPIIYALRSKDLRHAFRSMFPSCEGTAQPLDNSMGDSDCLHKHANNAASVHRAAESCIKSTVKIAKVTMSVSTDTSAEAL
Assay: Cannabinoid receptor radioligand binding assay, [3H]-CP 55,940 displacement, hCB1
measured-parameter: IC50

- smiles-repr: "COc1ccc(C(=O)c2cc3cc(C)n(CCCNS(C)(=O)=O)c3s2)cc1"
  test-target: "recombinant human cannabinoid receptor CB1 (Homo sapiens)"
  val: "1000 to 10000 nM"
- smiles-repr: "Cc1c(Cl)c2cc(C(=O)c3cccc(Cl)c3Cl)sc2n1CCN1CCOCC1"
  test-target: "recombinant human cannabinoid receptor CB1 (Homo sapiens)"
  val: "< 100 nM"
- smiles-repr: "COc1ccc(C(=O)c2cc3cc(C)n(CCN4CCCOCC4)c3s2)cn1"
  test-target: "recombinant human cannabinoid receptor CB1 (Homo sapiens)"
  val: "100 to 1000 nM"
- smiles-repr: "COc1ccc(C(=O)c2cc3cc(C)n(Cc4ccccc4)c3s2)cc1"
  test-target: "recombinant human cannabinoid receptor CB1 (Homo sapiens)"
  val: "1000 to 10000 nM"
- smiles-repr: "Cc1cc2cc(C(=O)c3cccc(Cl)c3Cl)sc2n1S(=O)(=O)CC1CCOCC1"
  test-target: "recombinant human cannabinoid receptor CB1 (Homo sapiens)"
  val: "< 100 nM"
- smiles-repr: "COc1ccc(C(=O)c2cc3c(Cl)c(C)n(CCN4CCOCC4)c3s2)cc1"
  test-target: "recombinant human cannabinoid receptor CB1 (Homo sapiens)"
  val: "1000 to 10000 nM"
- smiles-repr: "COc1cc(F)c(C(=O)c2cc3cc(C)n(CC4CCOCC4)c3s2)c(F)c1"
  test-target: "recombinant human cannabinoid receptor CB1 (Homo sapiens)"
  val: "100 to 1000 nM"
- smiles-repr: "Cc1cc2cc(C(=O)c3cccc(Cl)c3Cl)sc2n1S(=O)(=O)N(C)C"
  test-target: "recombinant human cannabinoid receptor CB1 (Homo sapiens)"
  val: "100 to 1000 nM"
- smiles-repr: "Cc1cc2cc(C(=O)c3ccc(OC(F)(F)F)cc3)sc2n1CCN1CCOCC1"
  test-target: "recombinant human cannabinoid receptor CB1 (Homo sapiens)"
  val: "1000 to 10000 nM"
- smiles-repr: "Cc1cc2cc(C(=O)c3ccc(N(C)C(=O)OC(C)(C)C)cc3)sc2n1CCN1CCOCC1"
  test-target: "recombinant human cannabinoid receptor CB1 (Homo sapiens)"
  val: "1000 to 10000 nM"
- smiles-repr: "COc1ccc(C(=O)c2cc3cc(C)n(CCN4CCCCC4)c3s2)c(Cl)c1"
  test-target: "recombinant human cannabinoid receptor CB1 (Homo sapiens)"
  val: "100 to 1000 nM"
- smiles-repr: "C=Cn1c(C)cc2cc(C(=O)c3cccc(Cl)c3Cl)sc21"
  test-target: "recombinant human cannabinoid receptor CB1 (Homo sapiens)"
  val: "> 10000 nM"
- smiles-repr: "Cc1cc2cc(C(=O)c3cccc(Cl)c3Cl)sc2n1CCN1CCCCC1"
  test-target: "recombinant human cannabinoid receptor CB1 (Homo sapiens)"
  val: "100 to 1000 nM"
- smiles-repr: "CCOc1ccc(C(=O)c2cc3cc(C)n(CCN4CCOCC4)c3s2)c(F)c1"
  test-target: "recombinant human cannabinoid receptor CB1 (Homo sapiens)"
  val: "1000 to 10000 nM"
- smiles-repr: "Cc1cc2cc(C(=O)c3cccnc3)sc2n1CCN1CCOCC1"
  test-target: "recombinant human cannabinoid receptor CB1 (Homo sapiens)"
  val: "> 10000 nM"
- smiles-repr: "COc1ccc(C(=O)c2cc3cc(C)n(CCN4CCCCC4)c3s2)c(O)c1"
  test-target: "recombinant human cannabinoid receptor CB1 (Homo sapiens)"
  val: "1000 to 10000 nM"
- smiles-repr: "CCS(=O)(=O)NCCCn1c(C)cc2cc(C(=O)c3ccc(OC)cc3)sc21"
  test-target: "recombinant human cannabinoid receptor CB1 (Homo sapiens)"
  val: "> 10000 nM"
- smiles-repr: "COc1ccc(C(=O)c2cc3cc(C)n(CCN4CCCC4)c3s2)c(F)c1"
  test-target: "recombinant human cannabinoid receptor CB1 (Homo sapiens)"
  val: "1000 to 10000 nM"
- smiles-repr: "COc1ccc(C(=O)c2cc3cc(C)n(CCN4CCC(F)(F)CC4)c3s2)cn1"
  test-target: "recombinant human cannabinoid receptor CB1 (Homo sapiens)"
  val: "< 100 nM"
- smiles-repr: "COc1cc(F)c(C(=O)c2cc3cc(C)n(CCN4CCOCC4)c3s2)c(F)c1"
  test-target: "recombinant human cannabinoid receptor CB1 (Homo sapiens)"
  val: "1000 to 10000 nM"

====

Biological target: human CB1 (hCB1) (Homo sapiens)
Construct: (cDNA clone) CNR01L000
Sequence (P21554 whole entry): as the sequence (P21554 whole entry) above
Assay: 35S GTPγS binding assay, hCB1 agonist
Type: biochemical
Details: GTPγS agonist, HEK-293 membranes; read-out: hCB1 EC50 (GTPyS ag)
# EC50 annotations

- molecule: "COc1ccc(C(=O)c2cc3cc(C)n(CCN4CCOCC4)c3s2)c(OC)c1 [Compound 120]"
  EC50: "0.1 to 1 µM"
- molecule: "COc1ccc(C(=O)c2cc3cc(C)n(CCN4CCOCC4)c3s2)c(Cl)n1 [Compound 137]"
  EC50: "1 to 10 µM"
- molecule: "Cc1cc2cc(C(=O)c3ccccc3OC(F)(F)F)sc2n1CCN1CCOCC1 [Compound 15]"
  EC50: "0.1 to 1 µM"
- molecule: "COc1ccc(C(=O)c2cc3cc(C)n(CC4CCCCO4)c3s2)cn1 (stereo not drawn) [Compound 173]"
  EC50: "1 to 10 µM"
- molecule: "COc1ccc(C(=O)c2cc3cc(C)n(CC4CCOCC4)c3s2)cc1 [Compound 62]"
  EC50: "0.1 to 1 µM"
- molecule: "COc1ccc(C(=O)c2cc3cc(C)n(C(=S)SC)c3s2)cc1 [Compound 155]"
  EC50: "> 10 µM"
- molecule: "Cc1cc2cc(C(=O)c3ccc(O)cc3F)sc2n1CCN1CCOCC1 [Compound 165]"
  EC50: "> 10 µM"
- molecule: "COCCN(C)CCn1c(C)cc2cc(C(=O)c3ccc(OC)nc3)sc21 [Compound 157]"
  EC50: "> 10 µM"
- molecule: "COc1ccc(C(=O)c2cc3cc(C)n(CC(=O)O)c3s2)cn1 [Compound 166]"
  EC50: "> 10 µM"
- molecule: "COc1ccc(C(=O)c2cc3cc(C)n(CCN4CCC(F)(F)CC4)c3s2)cn1 [Compound 152]"
  EC50: "1 to 10 µM"
- molecule: "COc1ccc(C(=O)c2cc3cc(C)n(CC4CCNCC4)c3s2)cn1 [Compound 172]"
  EC50: "> 10 µM"
- molecule: "COc1ccc(C(=O)c2cc3cc(C)n(CC4CCN(C(=O)OC(C)(C)C)CC4)c3s2)cn1 [Compound 179]"
  EC50: "> 10 µM"
- molecule: "CCOc1ccc(C(=O)c2cc3cc(C)n(CCN4CCOCC4)c3s2)c(Cl)c1 [Compound 126]"
  EC50: "1 to 10 µM"
- molecule: "Cc1cc2cc(C(=O)c3cccc(Cl)c3Cl)sc2n1CCN1CCN(C)CC1 [Compound 33]"
  EC50: "< 0.1 µM"
- molecule: "COc1cc(F)c(C(=O)c2cc3cc(C)n(CC4CCOCC4)c3s2)c(F)c1 [Compound 180]"
  EC50: "1 to 10 µM"
- molecule: "COc1ccc(C(=O)c2cc3cc(C)n(S(=O)(=O)CC4CCOCC4)c3s2)cc1 [Compound 57]"
  EC50: "< 0.1 µM"
- molecule: "COc1ccc(C(=O)c2cc3cc(C)n(CCN4CCCOCC4)c3s2)cn1 [Compound 158]"
  EC50: "> 10 µM"
- molecule: "COc1ccc(C(=O)c2cc3cc(C)n(CCN4CCOCC4)c3s2)c(C(F)(F)F)c1 [Compound 119]"
  EC50: "0.1 to 1 µM"
- molecule: "COc1ccc(C(=O)c2cc3cc(C)n(CC4CCSCC4)c3s2)cn1 [Compound 175]"
  EC50: "0.1 to 1 µM"
- molecule: "Cc1cc2cc(C(=O)c3cccc(Cl)c3Cl)sc2n1S(=O)(=O)N1CCOCC1 [Compound 45]"
  EC50: "0.1 to 1 µM"
- molecule: "COc1ccc(C(=O)c2cc3cc(C)n(CCC4CCOCC4)c3s2)cc1 [Compound 82]"
  EC50: "0.1 to 1 µM"
- molecule: "COc1ccc(C(=O)c2cc3cc(C)n(CCC(C)(C)O)c3s2)cc1 [Compound 77]"
  EC50: "< 0.1 µM"
- molecule: "COc1ccc(C(=O)c2cc3cc(C)n(C)c3s2)cn1 [Compound 174]"
  EC50: "> 10 µM"
- molecule: "COC(=O)Cn1c(C)cc2cc(C(=O)c3ccc(OC)nc3)sc21 [Compound 168]"
  EC50: "> 10 µM"
- molecule: "COc1ccc(C(=O)c2cc3cc(C)n(CCN4CC5CC4CO5)c3s2)cn1 (stereo not drawn) [Compound 169]"
  EC50: "> 10 µM"
- molecule: "COc1ccc(C(=O)c2cc3cc(C)n(CCN4CCCC4)c3s2)cn1 [Compound 167]"
  EC50: "> 10 µM"
- molecule: "COc1ccc(C(=O)c2cc3cc(C)n(CC4CCOC4)c3s2)cn1 (stereo not drawn) [Compound 159]"
  EC50: "> 10 µM"
